// provenance: paper PMC10641069

# Assay Target: T1, FBF-2 RBD+CT (Caenorhabditis elegans, UniProt Q09312 164-632)
# T1 sequence: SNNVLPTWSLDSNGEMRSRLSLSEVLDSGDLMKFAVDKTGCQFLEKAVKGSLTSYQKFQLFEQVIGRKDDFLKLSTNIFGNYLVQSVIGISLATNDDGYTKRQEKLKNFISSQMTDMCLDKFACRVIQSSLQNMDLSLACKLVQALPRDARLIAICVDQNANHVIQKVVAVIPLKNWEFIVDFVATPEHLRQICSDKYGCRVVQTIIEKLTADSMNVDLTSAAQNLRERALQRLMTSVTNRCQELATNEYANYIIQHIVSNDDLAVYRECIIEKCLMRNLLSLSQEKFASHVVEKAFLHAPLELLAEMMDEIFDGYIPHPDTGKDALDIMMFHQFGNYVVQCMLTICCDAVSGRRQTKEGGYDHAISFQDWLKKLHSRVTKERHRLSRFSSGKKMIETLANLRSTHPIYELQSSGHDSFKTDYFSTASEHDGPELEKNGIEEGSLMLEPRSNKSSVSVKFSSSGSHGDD
# Procedure Text: EMSA; no LST-1; EMSA: FBF-2 in 20 mM HEPES pH 7.4, 150 mM NaCl, 0.5 mM TCEP mixed 1:1 with 5 nM final RNA in 10 mM HEPES pH 7.4, 0.01% Tween 20, 0.1 mg/ml BSA, 0.1 mg/ml yeast
# Condition Info: protein: recombinant; tags: none (His6-SUMO removed with Ulp1); label: 3'-Cy5
Measurement Label: Kd (nM)
Answers are plain numbers, in nM.

Param item = AUCAUGUGCCAUAC (ssRNA) [gld-1 FBEa RNA (EMSA)] ; retrieve measured Kd.
334
